# measurement notes: Cell counts and viability of LNCaP cells after culture with iron chelator
# Format: cell-based
# test context: human, LNCaP cells, Desferal 0.25 ug/ml
value kind: viability at 72 h, 0.25 ug/ml (%)

chemical_structure=CC(=O)N(O)CCCCCNC(=O)CCC(=O)N(O)CCCCCNC(=O)CCC(=O)N(O)CCCCCN value_kind="viability at 72 h, 0.25 ug/ml" result_value=93.8

###

# measurement notes: Cell counts and viability of LNCaP cells after culture with iron chelator
# Format: cell-based
# test context: human, LNCaP cells, Desferal 0.50 ug/ml
value kind: viability at 72 h, 0.5 ug/ml

molecule="CC(=O)N(O)CCCCCNC(=O)CCC(=O)N(O)CCCCCNC(=O)CCC(=O)N(O)CCCCCN [Desferal, Deferoxamine]" value_kind="viability at 72 h, 0.5 ug/ml" result_value=93.4%

###

# measurement notes: Cell counts and viability of LNCaP cells after culture with iron chelator
# Format: cell-based
# test context: human, LNCaP cells, Desferal 3.0 ug/ml
# Method: Comment: Table 2 is data from one of three similar experiments in which cells were cultured for 72 hours following the methods described in the proposal (i.e., cells in 6-well plates for PSA studies and cells in 96-well plates for thymidine incorporation, both at the same cell concentration). […] For viable cells, the per cell production of PSA rose 33.6% (column 8: PSA value of 1.5×10E7 molecules per cell divided by control value of 1.13×10E7). […]
value kind: viability at 72 h, 3 ug/ml

compound="CC(=O)N(O)CCCCCNC(=O)CCC(=O)N(O)CCCCCNC(=O)CCC(=O)N(O)CCCCCN [Desferal, Deferoxamine]" result_value=90.9%
